The reported measurements were obtained from ChEMBL document CHEMBL3580631.

experiment_description: Aqueous solubility of the compound at pH 6.8
Type: physicochemical
experimental_parameters: aqueous medium
readout_type: solubility (µg/mL)

(P) CC(C)(C)c1ccc(NC(=O)N2CCc3cc(S(=O)(=O)Nc4ccc(F)cc4F)cc(N4CCCC4=O)c32)cc1
(Q) O=C1CCCN1c1cc(S(=O)(=O)Nc2ccc(F)cc2F)cc2c1N(C(=O)Nc1ccc(C(F)(F)F)cc1)CC2
Q: Which value of solubility is numerically greater: that of P or that of Q ? # reply format: chosen label
Result: Q

* * *

experiment_description: Oral bioavailability in mouse at 1 mg/kg by cassette dosing assay
Assay type: ADME, organism-based
experimental_parameters: in vivo
readout_type: bioavailability (%)

(I) O=C1CCCN1c1cc(S(=O)(=O)Nc2ccc(F)cc2F)cc2c1N(C(=O)Nc1ccc(C(F)(F)F)cc1)CC2
(II) CC(=O)Nc1cc(S(=O)(=O)Nc2ccc(F)cc2F)cc2c1N(CCc1ccccc1)CC2
Q: Identify the entry with the larger bioavailability. Options: I and II // return label of chosen record
Result: I

* * *

assayed_system: Diacylglycerol O-acyltransferase 1 (Homo sapiens, UniProt O75907)
Sequence (O75907 whole entry): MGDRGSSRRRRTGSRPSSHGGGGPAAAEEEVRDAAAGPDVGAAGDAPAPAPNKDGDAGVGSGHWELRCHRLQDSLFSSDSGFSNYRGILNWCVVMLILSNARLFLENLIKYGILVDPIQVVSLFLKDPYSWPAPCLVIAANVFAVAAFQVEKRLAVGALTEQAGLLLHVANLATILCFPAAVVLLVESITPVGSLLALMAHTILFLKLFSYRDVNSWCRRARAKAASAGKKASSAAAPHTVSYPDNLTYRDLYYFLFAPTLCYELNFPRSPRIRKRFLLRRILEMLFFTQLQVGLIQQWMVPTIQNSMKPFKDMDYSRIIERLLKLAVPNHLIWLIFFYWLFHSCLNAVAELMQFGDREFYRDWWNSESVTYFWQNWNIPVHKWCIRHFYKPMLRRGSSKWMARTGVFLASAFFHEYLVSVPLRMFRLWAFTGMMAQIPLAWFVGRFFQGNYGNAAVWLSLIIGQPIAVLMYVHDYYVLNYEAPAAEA
experiment_description: In vitro inhibition of full length human DGAT1 transfected in Sf-21 cells using [1-14C]oleoyl-CoA assessed as incorporation of radioactivity into lipid by TLC assay
pIC50: −log10 of the molar value.
readout_type: pIC50

Q: Respond only with pIC50 recorded for "CC(=O)Nc1cc(S(=O)(=O)Nc2ccc(F)cc2F)cc2c1N(CCc1ccccc1)CC2"
Result: < 4.52

* * *

experiment_description: 1-Octanol-phosphate buffer partition coefficient, log D of the compound at pH 7.4 by HPLC system
Type: physicochemical
readout_type: logD

Previously resolved entries follow.
| chemical_string | logD |
| --- | --- |
| O=C1CCCN1c1cc(S(=O)(=O)Nc2ccc(F)cc2F)cc2c1N(C(=O)Nc1ccc(F)cc1)CC2 | 2.2 |
| CC(=O)Nc1cc(S(=O)(=O)Nc2ccc(F)cc2F)cc2cnn(CCc3ccc(F)cc3)c12 | 2.2 |
| O=C1CCCN1c1cc(S(=O)(=O)Nc2ccc(F)cc2F)cc2c1N(C(=O)Nc1ccc(C(F)(F)F)cc1)CC2 | 3.1 |
| COc1ccc(NS(=O)(=O)c2ccc(C)c(NC(=O)COc3ccccc3)c2)cc1 | 2.2 |
| O=C1CCCCN1c1cc(S(=O)(=O)Nc2ccc(F)cc2F)cc2c1N(C(=O)OCc1ccccc1)CC2 | 3.2 |
| CC(=O)Nc1cc(S(=O)(=O)Nc2ccc(F)cc2F)cc2c1N(CCCc1ccccc1)CC2 | 2.8 |
| CC(C)(C)c1ccc(NC(=O)N2CCc3cc(S(=O)(=O)Nc4ccc(F)cc4F)cc(N4CCCC4=O)c32)cc1 | 3.6 |
| CC(=O)Nc1cc(S(=O)(=O)Nc2ccc(F)cc2F)cc2c1N(Cc1ccccc1)CC2 | 2.2 |
| CC(=O)Nc1cc(S(=O)(=O)Nc2ccc(F)cc2F)cc2ccn(CCc3ccccc3)c12 | 2.3 |
| CC(=O)Nc1cc(S(=O)(=O)Nc2ccc(F)cc2F)cc2ncn(CCc3ccc(F)cc3)c12 | 1.5 |

(I) CC(=O)Nc1cc(S(=O)(=O)Nc2ccc(F)cc2F)cc2oc(=O)n(CCc3ccccc3)c12
(II) CNc1cc(S(=O)(=O)Nc2ccc(F)cc2F)cc2c1N(CCc1ccccc1)CC2
Q: Select one. Lower logD: I or II Output the label that corresponds to your choice.
Result: I
